# assay_info: Bioavailability in mouse at 5 mg/kg, ip
# Type: ADME, organism-based
# applied_conditions: in vivo
property_name: bioavailability (%)
Give the value in % but do not write % after it.

Problem: Sample "CCc1cccc(CC)c1NC(=O)c1ccn2c1CCc1cnc(Nc3ccc(N4CCN(C)CC4)cc3OC)nc1-2" — what was its bioavailability?
Result: 90.3

====

# assay_info: Cmax in mouse at 5 mg/kg, po
# Type: ADME, organism-based
# Design: dose 5 mg/kg, route oral
# applied_conditions: in vivo
property_name: Cmax (nM)
Give the value in nM but do not write nM after it.

Problem: Sample "CCc1cccc(CC)c1NC(=O)c1ccn2c1CCc1cnc(Nc3ccc(N4CCN(C)CC4)cc3OC)nc1-2" — what was its Cmax?
Result: 188
